Recorded IC50 for the following molecules
- Test system: SKBR3 (PI3Kα-Wild Type) cell line
- assay_summary: HTRF phospho-AKT(S473) cell assay in SKBR3 cells
- Assay type: cell-based, human
- condition_set: Homo sapiens, SK-BR-3; HTRF phospho-AKT(S473), SKBR3 (PI3Kα-Wild Type) cells, 2 hours compound incubation, PDGF-BB stimulated

{"molecule": "[2H]C([2H])([2H])n1ccc(C2CCN(c3nc4c([C@@H](C)Nc5ccc(Cl)nc5C(=O)NS(C)(=O)=O)cc(C)cc4c(=O)n3C)CC2)n1", "IC50": "≥ 5 µM"}
{"molecule": "Cc1cc([C@@H](C)Nc2ccc(Cl)nc2C(=O)NS(C)(=O)=O)c2nc(N3C[C@@H]4[C@H](C3)[C@H]4n3ccccc3=O)n(C)c(=O)c2c1", "IC50": "1 to 5 µM"}
{"molecule": "[2H]C([2H])([2H])n1ncc2cc(-c3nc4c([C@@H](C)Nc5ccc(Cl)nc5C(=O)NS(C)(=O)=O)cc(C)cc4c(=O)n3C)ccc21", "IC50": "1 to 5 µM"}
{"molecule": "Cc1cc([C@@H](C)Nc2ccc(Cl)nc2C(=O)NS(C)(=O)=O)c2nc(N3CCC[C@@H](c4cnc(C)c(C#N)c4)C3)n(C)c(=O)c2c1 (relative stereo)", "IC50": "≥ 5 µM"}
{"molecule": "Cc1cc([C@@H](C)Nc2ccc(Cl)nc2C(=O)NS(C)(=O)=O)c2nc(N3C[C@@H]4[C@H](C3)[C@H]4c3cc[nH]n3)n(C)c(=O)c2c1", "IC50": "1 to 5 µM"}
